# method: Pharmacokinetic studies / bioavailability in rats
# Format: in vivo, rat
# measurementContext: male, rat, plasma, castrated male rats
measure: half-life (h)
Quick note: give the figure in h, leave out the unit.

Would you kindly share the measured half-life for COc1cc(OC)c(NC(=O)c2ccc(Cc3cc4c(cc3C)C(C)(C)CCC4(C)C)o2)c(OC)c1 ?
1.7

###

# experimentalSystem: human GnRH receptor (Homo sapiens)
# Construct: expressed in transfected cells; host or cells: HEK 293 (hGnRH-R/293, from Dr. Stuart Sealfon)
# Sequence (P30968 1-328): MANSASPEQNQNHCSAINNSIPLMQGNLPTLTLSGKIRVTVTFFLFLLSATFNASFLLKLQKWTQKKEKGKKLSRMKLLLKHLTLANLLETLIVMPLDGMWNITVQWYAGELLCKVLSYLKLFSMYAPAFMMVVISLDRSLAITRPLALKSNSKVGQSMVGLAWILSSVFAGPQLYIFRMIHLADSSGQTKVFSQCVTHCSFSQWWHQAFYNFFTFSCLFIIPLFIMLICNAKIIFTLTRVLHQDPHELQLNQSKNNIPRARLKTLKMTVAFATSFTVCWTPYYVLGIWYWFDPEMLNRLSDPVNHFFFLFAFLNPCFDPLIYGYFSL
# method: Radioligand binding, 125I-GnRH-A displacement, membranes of HEK 293 cells with human GnRH receptor
# measurementContext: 1 h, repeat of % Inhib. at 1 uM; read-out: Repeats @ 1 uM hGnRH
inhibition at 1 µM listing for selected compounds.
Quick note: give the figure in %, leave out the unit.

Use the examples below as a reference point.
compound	inhibition at 1 µM / %
Cc1cc2c(cc1Cc1ccc(C(=O)NCCc3ccccn3)o1)C(C)(C)CCC2(C)C [drawing 985]	62
Cc1cc2c(cc1Cc1ccc(C(=O)N[C@@H](CO)Cc3ccc(O)cc3)o1)C(C)(C)CCC2(C)C	-9
Cc1cc2c(cc1Cc1ccc(C(=O)NC3c4ccccc4CC3O)o1)C(C)(C)CCC2(C)C (centres unmarked)	-29

Would you kindly share the measured inhibition at 1 µM for Cc1cc2c(cc1Cc1ccc(C(=O)NCCN3CCNC3=O)o1)C(C)(C)CCC2(C)C [drawing 1041] ?
44

Would you kindly share the measured inhibition at 1 µM for Cc1cc2c(cc1Cc1ccc(C(=O)NC(CO)Cc3ccc(Cl)cc3)o1)C(C)(C)CCC2(C)C (centres unmarked) ?
3

Would you kindly share the measured inhibition at 1 µM for Cc1cc2c(cc1Cc1ccc(C(=O)N3CCN(c4ccc(F)cc4)CC3)o1)C(C)(C)CCC2(C)C ?
9

Would you kindly share the measured inhibition at 1 µM for Cc1cc2c(cc1Cc1ccc(C(=O)N3CCN(c4ccc([N+](=O)[O-])cc4)CC3)o1)C(C)(C)CCC2(C)C ?
6

Would you kindly share the measured inhibition at 1 µM for Cc1cc2c(cc1Cc1ccc(C(=O)NC(CO)CC3CCCCC3)o1)C(C)(C)CCC2(C)C (centres unmarked) [drawing 1215] ?
2

###

# experimentalSystem: mouse GnRH receptor (Mus musculus)
# Construct: expressed in transfected cells; host or cells: 293 cells
# Sequence (Q01776 whole entry): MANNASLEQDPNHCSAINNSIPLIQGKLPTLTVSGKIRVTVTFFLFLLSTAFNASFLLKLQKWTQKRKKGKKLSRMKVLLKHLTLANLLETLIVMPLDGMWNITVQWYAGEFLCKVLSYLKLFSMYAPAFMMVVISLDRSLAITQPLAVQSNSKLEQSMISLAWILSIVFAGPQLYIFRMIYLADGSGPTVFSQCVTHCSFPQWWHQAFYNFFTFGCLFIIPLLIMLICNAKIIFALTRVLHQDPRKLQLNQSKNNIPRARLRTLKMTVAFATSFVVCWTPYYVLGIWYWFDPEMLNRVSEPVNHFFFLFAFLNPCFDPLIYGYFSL
# method: Radioligand binding, 125I-GnRH-A, 293 cells expressing mouse GnRH receptors
# measurementContext: 10 uM; read-out: % Inhib. @ 10 uM mGnRH
inhibition at 10 µM listing for selected compounds.
Quick note: give the figure in %, leave out the unit.

compound	inhibition at 10 µM / %
Cc1cc2c(cc1Cc1ccc(C(=O)N(Cc3cccc(Oc4cccc(C(F)(F)F)c4)c3)CC(C)(C)CN(C)C)o1)C(C)(C)CCC2(C)C	89

Record Cc1cccc(N2CCN(C(=O)c3ccc(Cc4cc5c(cc4C)C(C)(C)CCC5(C)C)o3)CC2C)c1 (stereo not shown) [drawing 1520] : what is its inhibition at 10 µM with mouse GnRH receptor (Mus musculus)?
73

Record COc1ccc(C(NC(=O)c2ccc(Cc3cc4c(cc3C)C(C)(C)CCC4(C)C)o2)C2CC2)cc1 (stereo not shown) [drawing 1435] : what is its inhibition at 10 µM with mouse GnRH receptor (Mus musculus)?
83

Record Cc1cc2c(cc1Cc1ccc(C(=O)NCCc3c[nH]c4ccc(O)cc34)o1)C(C)(C)CCC2(C)C [drawing 1526] : what is its inhibition at 10 µM with mouse GnRH receptor (Mus musculus)?
84
